The origin of these recorded values is paper PMC8704707.

System: HepG2 cells
Details: human
quantity-kind: IC50

Give the value of IC50 reported for the following: [H]/N=C(\N)NN=Cc1ccc([N+](=O)[O-])o1 [Compound 1n]
10.4 µM

###

Tested on: Enterococcus faecalis ATCC 29212
Assay: Antibacterial microdilution broth method (EUCAST)
Assay type: cell-based
Details: ATCC29212, 24 h, read-out: MIC EF 24 h
quantity-kind: MIC (µM)
The reply should contain only the number, in µM.

Give the value of MIC reported for the following: "[H]/N=C(\N)NN=Cc1ccc(Cl)cc1O"
500

Give the value of MIC reported for the following: "[H]/N=C(\N)NN=Cc1cc(I)cc(I)c1"
31.2

Give the value of MIC reported for the following: "NC(=O)N/N=C/c1ccc([N+](=O)[O-])o1"
500

Give the value of MIC reported for the following: "[H]/N=C(\N)NN=Cc1cc(I)c(O)c(I)c1"
500

###

System: Enterococcus faecalis ATCC 29212
Assay: Antibacterial microdilution broth method (EUCAST)
Format: cell-based
Settings: ATCC29212, 24 h, read-out: MIC EF 24 h
Structures can show the parent of a compound that is named as a salt.
quantity-kind: MIC (µM)
The reply should contain only the number, in µM.

Before answering, review these 6 worked examples.
[H]/N=C(\N)NN=Cc1ccc([N+](=O)[O-])s1 | 250
NC(=S)N/N=C/c1ccc([N+](=O)[O-])o1 | 125
CC(=O)Oc1c(I)cc(I)cc1/C=N/NC(=N)N | 250
NC(=S)N/N=C/c1cc(I)cc(I)c1O | 250
[H]/N=C(\N)NN=Cc1ccc([N+](=O)[O-])o1 | 500
[H]/N=C(\N)NN=Cc1cc(Cl)cc(Br)c1O | 500

Give the value of MIC reported for the following: "[H]/N=C(\N)NN=Cc1cc(Cl)cc(Cl)c1O"
250

Give the value of MIC reported for the following: "[H]/N=C(\N)NN=Cc1cc(Cl)cc(I)c1O"
250

Give the value of MIC reported for the following: "[H]/N=C(\N)NN=Cc1cc(I)ccc1O"
500

Give the value of MIC reported for the following: "[H]/N=C(\N)NN=Cc1cc(Cl)ccc1O"
125

Give the value of MIC reported for the following: CCN1CCN(C(=O)N[C@@H](C(=O)N[C@@H]2C(=O)N3[C@@H]2SC(C)(C)[C@@H]3C(=O)O)c2ccccc2)C(=O)C1=O [PIP, piperacillin sodium salt, reference compound]
1.85

###

Collected MIC values appear next to each entry.
Test system: Candida parapsilosis ATCC 22019
Assay: microbe, parasite or virus in culture
Assay type: cell-based
Details: Lodderomyces parapsilosis, ATCC22019, 48 h, read-out: MIC CP 48 h
The reply should contain only the number, in µM.

Before answering, review these 2 worked examples.
Cl.N=C(NN)N/N=C/c1cc(I)cc(I)c1O [Compound 2e] | 125
[H]/N=C(\N)NN=Cc1cc(Cl)cc(I)c1O [Compound 1l] | 500

Give the value of MIC reported for the following: [H]/N=C(\N)NN=Cc1cc(I)ccc1O [Compound 1i]
250

Give the value of MIC reported for the following: CC(=O)Oc1c(I)cc(I)cc1/C=N/NC(=N)N [Compound 2a]
500

Give the value of MIC reported for the following: [H]/N=C(\N)NN=Cc1cc(Cl)cc(Br)c1O [Compound 1k]
500
